Catalogue of Max % death with 1 μM FO values
- Tested on: HeLa MKYP cells
- protocol details: Cell death measured by DAPI staining, with 1 μM FCCP/oligomycin or no toxin (no FO)
- Format: cell-based
- test context: with 1 μM FO
endpoint label: Max % death with 1 μM FO (%)

compound | reported measurement
Fc1cccc2c1CC[C@@H](N1C[C@H]3COC[C@H]3C1)[C@@H]2Nc1ncnc2[nH]c(C3CC3)cc12 (single isomer, unassigned) | 28.6
c1ccc2c(c1)CC[C@H](C1CCOCC1)[C@@H]2Nc1ncnc2[nH]c(C3CC3)cc12 | 4.8
C[C@H]1CN([C@H]2COc3ccccc3[C@@H]2Nc2ncnc3[nH]c(C(F)(F)F)cc23)CCO1 | 4.0
C[C@@]12COC[C@]1(C)CN(C1COc3ccccc3C1Nc1ncnc3[nH]c(C(F)(F)F)cc13)C2 (stereo partly shown) | 27.7
COC[C@@H]1CCN(C2COc3ccccc3C2Nc2ncnc3[nH]c(C4CC4)cc23)C1 (single isomer, unassigned) [EP-0041514] | 8.1
C[S@](=N)(=O)C1CN([C@H]2COc3ccccc3[C@@H]2Nc2ncnc3[nH]c(C(F)(F)F)cc23)C1 (single isomer, unassigned) [EP-0041495] | 2.9
Fc1ccc2c(c1)CC[C@H](N1CCOCC1)[C@H]2Nc1ncnc2[nH]c(C3CC3)cc12 (single isomer, unassigned) [EP-0038521] | 7.6
